Tested on: Candida albicans, strain B311
Test: Antifungal susceptibility testing, microdilution broth, pH 5.4/30° C./YNB
Type: cell-based
Settings: B311, 24 h, read-out: caEC50 24 hours
Method: Antifungal Screens were set up initially against Candida albicans, strain B311, and Cryotococcus neoformans, strain L210425. […] A loopful of growth from Sabouraud dextrose agar slant is inoculated into 4 ml of YNB broth media and incubated at 30° C. overnight (18-24 hrs) with constant agitation (Gyratory Shaker, New Brunswick Scientific). Prior to setting up susceptibility testing, the organisms are counted in a hemocytometer, and diluted as needed into assay media. […]
Result Type: EC50

In: Find the recorded EC50 belonging to Cc1nccn1CCCCc1ccc(CC(=O)N[C@H](CO)C(=O)N[C@H](CCCCN)C(=O)N[C@H](CC2CCCCC2)C(=O)O)cc1 [Comparator Compound A, bis-trifluoroacetate] and report it.
Out: > 400 µM

* * *

test system: Candida albicans, strain B311; test: Antifungal susceptibility testing, microdilution broth, pH 5.4/30° C./YNB; format: cell-based; conditions: B311, 24 hours, Table V (values agree with pH 5.4 assay), read-out: caEC50 24 hours
Result Type: EC50 (µM)
Return type: number; implicit unit µM.

In: Find the recorded EC50 belonging to Cc1nccn1CCCCc1ccc(C(C)C(=O)N[C@@H](CO)C(=O)N[C@@H](CCCCN)C(=O)N[C@@H](CC2CCCCC2)C(=O)O)cc1 (mixture of isomers) [Example 1] and report it.
Out: 33

In: Find the recorded EC50 belonging to CC[C@H](C)[C@H](NC(=O)[C@H](CCCCN)NC(=O)[C@H](CO)NC(=O)Cc1ccc(CCCCn2ccnc2C)cc1)C(=O)O [Example 7, bis-trifluoroacetate] and report it.
Out: 97

* * *

system: C.glab.; experiment: Antifungal susceptibility testing, pH 5.4 assay, different strains of Candida; assay type: cell-based, C.glabrata; settings: Nakaseomyces glabratus, 24 hr
Result Type: EC50

>  <Compound>
Cc1nccn1CCCCc1ccc(CC(=O)N[C@H](CO)C(=O)N[C@H](CCCCN)C(=O)N[C@H](CC2CCCCC2)C(=O)O)cc1 [Comparator Compound A, bis-trifluoroacetate]

>  <Result Type>
EC50

>  <Readout Value>
> 250 µM

$$$$

Consider the additional compound presented here.
In: Find EC50 (C.glab.) for the entry Cc1nccn1CCCCc1ccc(CC(=O)N[C@@H](CO)C(=O)N[C@@H](CCCCN)C(=O)N[C@@H](CC2CCCCC2)C(=O)O)cc1 [Example 2, bis-trifluoroacetate]
Out: > 250 µM

* * *

Each record here notes measured EC50.
system: C. albicans 516; assay: Antifungal susceptibility testing, pH 7.0/35° C., 1x10^3 cells/mL; assay type: cell-based, Candida albicans; settings: Candida albicans, 516; pH 7.0/35° C./1x10^3 cells/mL, 48 hrs; read-out: EC50 - 48 HRS C.albicans (516)
Return type: number; implicit unit µg/mL.

In: Find the recorded EC50 belonging to OC(Cn1cncn1)(Cn1cncn1)c1ccc(F)cc1F and report it.
Out: 0.65

In: Find the recorded EC50 belonging to C[C@@H]1[C@H](O)[C@@H](C)/C=C/C=C/C=C/C=C/C=C/C=C/C=C/[C@H](O[C@@H]2O[C@H](C)[C@@H](O)[C@H](N)[C@@H]2O)C[C@@H]2O[C@](O)(C[C@@H](O)C[C@@H](O)[C@H](O)CC[C@@H](O)C[C@@H](O)CC(=O)O[C@H]1C)C[C@H](O)[C@H]2C(=O)O and report it.
Out: 0.14
